Molecular target: Plasminogen (Homo sapiens)
Test: Allosteric inhibition of full length human plasmin by using chromogenic substrate spectrozyme PL preincubated for 5 mins followed by substrate addition by spectrophotometric method
measured_parameter: Efficacy (%)

structure	reading_unit	measurement
O=c1cc(-c2ccc(OS(=O)(=O)O)cc2)oc2cc(OS(=O)(=O)O)cc(OCc3ccc(-c4ccc(COc5cc(OS(=O)(=O)O)cc6oc(-c7ccc(OS(=O)(=O)O)cc7)cc(=O)c56)cc4)cc3)c12	%	79
O=c1c(OS(=O)(=O)O)c(-c2ccc(OS(=O)(=O)O)c(OS(=O)(=O)O)c2)oc2cc(OS(=O)(=O)O)cc(OCc3ccc(-c4ccc(COc5cc(OS(=O)(=O)O)cc6oc(-c7ccc(OS(=O)(=O)O)c(OS(=O)(=O)O)c7)c(OS(=O)(=O)O)c(=O)c56)cc4)cc3)c12	%	80
Cc1cc(COc2cc(OS(=O)(=O)O)cc3oc(-c4ccc(OS(=O)(=O)O)cc4)cc(=O)c23)c(C)cc1COc1cc(OS(=O)(=O)O)cc2oc(-c3ccc(OS(=O)(=O)O)cc3)cc(=O)c12	%	94
O=c1cc(-c2ccc(OS(=O)(=O)O)cc2)oc2cc(OS(=O)(=O)O)cc(OCc3cccc(COc4cc(OS(=O)(=O)O)cc5oc(-c6ccc(OS(=O)(=O)O)cc6)cc(=O)c45)c3)c12	%	86
